This collection of values is drawn from ChEMBL document CHEMBL1201862.

Assignment: determine reported GI50 for the given molecules.
test system: SF-268; experiment: NCI tumour cell line growth inhibition, 48 h
The source made the active and inactive calls. Rule as the data show it: active = GI50 up to about 1.1 µM and inactive = higher.

Task item: Fill blank: measured GI50 of the molecule O=[N+]([O-])C(C=C(n1nnc2ccccc21)n1nnc2ccccc21)=C(n1nnc2ccccc21)n1nnc2ccccc21 is ____.
Reply: > 100 µM (inactive)

Task item: Next: CCN1C(=O)/C(=C\Nc2ccccc2)S/C1=N/Nc1ncc(CC(=O)Nc2ccccc2C)s1
Reply: 88.5 µM (inactive)

Task item: Same question for O=C(O)c1c[nH]cc1C(=O)O please.
Reply: > 100 µM (inactive)

Task item: And for CC(C)c1cc(C(C)C)c(Cl)c(Cl)c1O.CC(C)c1cc(Cl)c(O)c(C(C)C)c1Cl ?
Reply: 18.8 µM (inactive)
